Field: inhibition at 5 µM. Provide a value for each of the compounds that follow.
target: Xanthine oxidase (XO) (Bos taurus, UniProt P80457); construct: purchased Sigma-Aldrich X4875; experiment: XO inhibitory assay (spectrophotometric quantification of uric acid formation at 295 nm); type: biochemical; details: read-out: XO inhibition (%)
Sequence (P80457 whole entry): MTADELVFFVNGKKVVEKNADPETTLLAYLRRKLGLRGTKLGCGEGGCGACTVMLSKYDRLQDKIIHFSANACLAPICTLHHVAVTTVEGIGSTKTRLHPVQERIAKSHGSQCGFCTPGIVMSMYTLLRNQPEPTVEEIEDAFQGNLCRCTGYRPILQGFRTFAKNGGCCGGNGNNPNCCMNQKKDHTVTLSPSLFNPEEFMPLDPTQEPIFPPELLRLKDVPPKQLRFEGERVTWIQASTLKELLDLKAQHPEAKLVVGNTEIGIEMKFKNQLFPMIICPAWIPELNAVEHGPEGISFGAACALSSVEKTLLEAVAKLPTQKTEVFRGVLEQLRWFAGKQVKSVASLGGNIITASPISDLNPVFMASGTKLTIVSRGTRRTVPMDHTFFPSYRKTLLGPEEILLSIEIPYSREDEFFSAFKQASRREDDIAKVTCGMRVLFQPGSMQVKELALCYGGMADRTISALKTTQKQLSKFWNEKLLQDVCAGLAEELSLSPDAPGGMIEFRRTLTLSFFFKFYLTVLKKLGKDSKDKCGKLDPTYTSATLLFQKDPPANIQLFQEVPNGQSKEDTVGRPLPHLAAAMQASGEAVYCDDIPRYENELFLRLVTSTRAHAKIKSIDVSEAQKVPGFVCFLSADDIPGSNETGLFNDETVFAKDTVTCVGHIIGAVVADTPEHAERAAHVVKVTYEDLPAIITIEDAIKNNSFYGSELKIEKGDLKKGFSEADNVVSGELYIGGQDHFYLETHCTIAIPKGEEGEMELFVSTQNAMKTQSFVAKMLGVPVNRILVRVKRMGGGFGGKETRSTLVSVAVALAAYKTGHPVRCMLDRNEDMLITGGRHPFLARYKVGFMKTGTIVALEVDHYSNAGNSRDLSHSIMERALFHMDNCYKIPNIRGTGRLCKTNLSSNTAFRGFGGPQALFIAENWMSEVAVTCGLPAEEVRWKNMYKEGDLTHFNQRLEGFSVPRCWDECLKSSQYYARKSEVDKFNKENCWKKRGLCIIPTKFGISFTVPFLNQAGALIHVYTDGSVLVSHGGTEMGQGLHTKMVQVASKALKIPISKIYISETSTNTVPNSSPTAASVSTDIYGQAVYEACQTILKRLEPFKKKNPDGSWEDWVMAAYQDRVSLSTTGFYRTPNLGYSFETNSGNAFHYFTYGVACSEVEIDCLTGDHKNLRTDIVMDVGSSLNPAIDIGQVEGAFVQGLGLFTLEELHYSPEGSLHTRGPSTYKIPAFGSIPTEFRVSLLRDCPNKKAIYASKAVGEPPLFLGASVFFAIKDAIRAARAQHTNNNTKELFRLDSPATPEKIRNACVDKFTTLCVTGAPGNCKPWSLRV
Could you give the number and then its unit, please?

Name the reported inhibition at 5 µM value associated with the compound `CCn1c(O)c(C(C(C)=Cc2ccccc2)c2c(O)n(CC)c(=S)n(CC)c2=O)c(=O)n(CC)c1=S`
63.4%

Name the reported inhibition at 5 µM value associated with the compound `CCn1c(O)c(C(c2ccccc2)c2c(O)n(CC)c(=S)n(CC)c2=O)c(=O)n(CC)c1=S`
10.4%

Name the reported inhibition at 5 µM value associated with the compound `CCn1c(O)c(C(c2cccnc2)c2c(O)n(CC)c(=S)n(CC)c2=O)c(=O)n(CC)c1=S`
67.3%

Name the reported inhibition at 5 µM value associated with the compound `CCn1c(O)c(C(c2cc3c(cc2[N+](=O)[O-])OCO3)c2c(O)n(CC)c(=S)n(CC)c2=O)c(=O)n(CC)c1=S`
55.2%
